system: antibodies in sera from SARS patients (sera 1a, 1b, 2, 6, 37, 62, London, SARS-yellow, SARS-green); assay type: binding, human
Each entry below carries its recorded Binding of serum 1b to linear peptides of protein M of SARS-CoV Urbani.
Readout: Binding of serum 1b to linear peptides of protein M of SARS-CoV Urbani

IIKLVFLWLLWPVTL
0.5
LVFLWLLWPVTLACF
0.5
AIAMACIVGLMWLSY
0.5
LACFVLAAVYRINWV
0.7
AAYNRYRIGNYKLNT
0.5
EQWNLVIGFLFLAWI
0.5
NRYRIGNYKLNTDHA
0.6
NRFLYIIKLVFLWLL
0.5
ILLNVPLRGTIVTRP
0.4

* * *

Each entry below carries its recorded Binding of serum 37 to looped/cyclic peptides of protein N of SARS-CoV Urbani.
system: antibodies in sera from SARS patients (sera 1a, 1b, 2, 6, 37, 62, London, SARS-yellow, SARS-green); assay type: binding, human; design: unit not given here
Readout: Binding of serum 37 to looped/cyclic peptides of protein N of SARS-CoV Urbani

EGALNTPKDHIGTRN
0.6
QLESKVSGKGQQQQG
0.6
QRSAPRITFGGPTDS
0.7
SDNGPQSNQRSAPRI
0.5

* * *

Each entry below carries its recorded Binding of Control serum Blood-bank to linear peptides.
tested on: control sera (pooled serum of ten healthy LUMC hospital workers; commercial negative donor pooled serum from the Dutch bloodbank); assay type: binding, human; parameters: unit not given here
Readout: Binding of Control serum Blood-bank to linear peptides

GGRNGARPKQRRPQG
0.7
LVKDPPNVQIHTIDG
0.4
MTTVYHITVSQIQLS
0.6
LADNKFALTCTSTHF
0.7
NCQDPAGGALIARCW
0.6
NVQIHTIDGSSGVAN
0.5
KHKKVSTNLCTHSFR
0.9
NTNSGPDDQIGYYRR
0.7
SLPFGWLVIGVAFLA
0.6
THFAFACADGTRHTY
0.7
VVVHGYFTEVYYQLE
0.5
NTYSTAWLCALGKVL
0.8
KKPRQKRTATKQYNV
0.6
NNNAATVLQLPQGTT
0.8
ECVRGTTVLLKEPCP
0.9
YGANKEGIVWVATEG
0.6
ATRRVRGGDGKMKEL
0.7
TTDTGIENATFFIFN
0.6

* * *

Each entry below carries its recorded Binding of serum SARS-green to looped/cyclic peptides of protein X2 of SARS-CoV Urbani.
tested on: antibodies in sera from SARS patients (sera 1a, 1b, 2, 6, 37, 62, London, SARS-yellow, SARS-green); type: binding, human
Readout: Binding of serum SARS-green to looped/cyclic peptides of protein X2 of SARS-CoV Urbani

SLTSLLKTHRMCKYT
0.2
KHKKVSTNLCTHSFR
0.3
SRRRLLACLCKHKKV
0.2
IQQWIQFMMSRRRLL
0.4
VVILRIGTQVLKTMS
0.3
KFTTSLSLHKLLQTL
0.4
SLYMAISPKFTTSLS
0.5
LLIQQWIQFMMSRRR
0.3
LHSSSLTSLLKTHRM
0.3
ALQELLIQQWIQFMM
0.4
QIQLSLLKVTAFQHQ
0.4
TTVYHITVSQIQLSL
0.2
YHITVSQIQLSLLKV
0.3
TMSLYMAISPKFTTS
0.4
THITMTTVYHITVSQ
0.3
MMSRRRLLACLCKHK
0.1
